Numbers sourced from patent US9499492B2.

- subjectOfTest: CDK2/CycE (Homo sapiens (Human), UniProt P24941)
- measurementProtocol: CDK2/CycE kinase assay (Method 2)
- details: 10 μM ATP
Please go through the items and note down their pIC50.
On this scale, pIC50 is minus log10 of a concentration expressed in M (mol/L).

Request: Observed pIC50 on CDK2/CycE (Homo sapiens (Human), UniProt P24941) for CS(=N)(=O)Cc1cc(F)cc(Nc2ncc(F)c(-c3ccc(F)cc3F)n2)c1 (single isomer, unassigned) [Example 13] , please.
Response: 6.14

Request: And what about the compound CS(=N)(=O)Cc1cc(Nc2ncc(F)c(-c3ccc(F)cc3F)n2)cc(C(F)(F)F)c1 (racemic) [Example 4] ?
Response: 6.06

Request: And what about the compound CS(=O)(Cc1cc(Nc2ncc(F)c(-c3ccc(F)cc3F)n2)cc(C(F)(F)F)c1)=NC(N)=O (racemic) [Example 7] ?
Response: 5.96

Request: And what about the compound CS(=O)(Cc1cc(F)cc(Nc2ncc(F)c(-c3ccc(F)cc3F)n2)c1)=NC#N (racemic) [Example 10] ?
Response: 6.24

Request: And what about the compound CS(=N)(=O)Cc1cc(Cl)cc(Nc2ncc(F)c(-c3ccc(F)cc3F)n2)c1 (racemic) [Example 15] ?
Response: 6.20

Request: And what about the compound Cc1cc(CS(C)(=N)=O)cc(Nc2ncc(F)c(-c3ccc(F)cc3F)n2)c1 (single isomer, unassigned) [Example 38] ?
Response: 6.14

Request: And what about the compound Cc1cc(CS(C)(=N)=O)cc(Nc2ncc(F)c(-c3ccc(F)cc3F)n2)c1 (single isomer, unassigned) [Example 37] ?
Response: 6.08

---

- subjectOfTest: CDK2/CycE (Homo sapiens (Human), UniProt P24941)
- measurementProtocol: CDK2/CycE kinase assay (Method 2)
- details: 10 μM ATP
reportedMetric: IC50 (nM)
State the answer as a number, implicitly in nM.

Request: Observed IC50 on CDK2/CycE (Homo sapiens (Human), UniProt P24941) for Cc1cc(CS(C)(=O)=NC#N)cc(Nc2ncc(F)c(-c3ccc(F)cc3F)n2)c1 (single isomer, unassigned) [Example 35] , please.
Response: 390

Request: And what about the compound CS(=O)(Cc1cc(Cl)cc(Nc2ncc(F)c(-c3ccc(F)cc3F)n2)c1)=NC#N (racemic) ?
Response: 530

Request: And what about the compound Cc1cc(CS(C)(=N)=O)cc(Nc2ncc(F)c(-c3ccc(F)cc3F)n2)c1 (racemic) [Example 17] ?
Response: 480

Request: And what about the compound CS(=N)(=O)Cc1cc(Br)cc(Nc2ncc(F)c(-c3ccc(F)cc3F)n2)c1 (single isomer, unassigned) [Example 41] ?
Response: 509

---

- subjectOfTest: CDK9/CycT1 (Homo sapiens (Human), UniProt P50750)
- Sequence (P50750 whole entry): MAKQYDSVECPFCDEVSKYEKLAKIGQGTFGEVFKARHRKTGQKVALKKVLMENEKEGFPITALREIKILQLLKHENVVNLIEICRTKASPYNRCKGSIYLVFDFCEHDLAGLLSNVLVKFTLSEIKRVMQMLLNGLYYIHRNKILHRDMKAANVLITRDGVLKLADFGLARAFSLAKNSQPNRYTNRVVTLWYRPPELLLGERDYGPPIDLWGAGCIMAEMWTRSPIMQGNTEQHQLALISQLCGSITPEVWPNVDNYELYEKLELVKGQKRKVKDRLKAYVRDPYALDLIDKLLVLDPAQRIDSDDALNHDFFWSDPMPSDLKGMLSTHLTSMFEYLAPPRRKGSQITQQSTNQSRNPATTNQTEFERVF
- Sequence (O60563 whole entry partner): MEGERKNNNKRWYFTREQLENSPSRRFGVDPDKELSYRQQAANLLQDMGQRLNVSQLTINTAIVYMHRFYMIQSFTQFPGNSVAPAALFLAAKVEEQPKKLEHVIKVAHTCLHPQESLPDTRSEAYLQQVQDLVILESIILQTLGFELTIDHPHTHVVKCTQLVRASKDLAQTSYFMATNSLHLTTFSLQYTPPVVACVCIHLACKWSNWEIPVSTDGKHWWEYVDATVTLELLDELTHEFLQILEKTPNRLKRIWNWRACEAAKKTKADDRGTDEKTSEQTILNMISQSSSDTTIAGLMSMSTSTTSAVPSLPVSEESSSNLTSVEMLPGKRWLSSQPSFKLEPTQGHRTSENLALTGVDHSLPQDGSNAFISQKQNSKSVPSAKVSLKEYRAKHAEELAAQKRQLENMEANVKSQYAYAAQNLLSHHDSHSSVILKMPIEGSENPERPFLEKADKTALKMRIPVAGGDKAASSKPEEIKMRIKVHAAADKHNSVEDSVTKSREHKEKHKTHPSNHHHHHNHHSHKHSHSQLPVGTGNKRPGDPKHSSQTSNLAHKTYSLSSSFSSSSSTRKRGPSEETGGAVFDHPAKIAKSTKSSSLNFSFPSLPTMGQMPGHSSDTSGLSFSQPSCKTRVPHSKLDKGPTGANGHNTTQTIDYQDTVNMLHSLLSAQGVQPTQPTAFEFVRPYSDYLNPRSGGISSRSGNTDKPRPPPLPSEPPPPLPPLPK
- measurementProtocol: CDK9/CycT1 high ATP kinase assay (Method 1b)
- Assay type: biochemical
- details: 2 mM ATP
Please go through the items and note down their pIC50.
On this scale, pIC50 is minus log10 of a concentration expressed in M (mol/L).

Request: // returns reported pIC50 for input CS(=O)(Cc1cc(Nc2ncc(F)c(-c3ccc(F)cc3F)n2)cc(S(F)(F)(F)(F)F)c1)=NC#N (racemic) [Example 28]
Response: 8.30

Request: And what about the compound Cc1cc(CS(C)(=N)=O)cc(Nc2ncc(F)c(-c3ccc(F)cc3F)n2)c1 (single isomer, unassigned) [Example 37] ?
Response: 5.20

Request: And what about the compound CS(=O)(Cc1cc(Nc2ncc(F)c(-c3ccc(F)cc3F)n2)cc(C(F)(F)F)c1)=NC(N)=O (single isomer, unassigned) [Example 23] ?
Response: 7.80

Request: And what about the compound CS(=O)(Cc1cc(Nc2ncc(F)c(-c3ccc(F)cc3F)n2)cc(S(F)(F)(F)(F)F)c1)=NC#N (single isomer, unassigned) [Example 29] ?
Response: 8.10

Request: And what about the compound CS(=N)(=O)Cc1cccc(Nc2ncc(F)c(-c3ccc(F)cc3F)n2)c1 (racemic) [Example 9] ?
Response: 5.57
